Tested on: E13 (patient-derived glioblastoma stem cells of classical subtype)
Assay: phenotypic distance (Euclidean, principal components) from DMSO controls (arbitrary units); higher = stronger morphological change
Conditions: 3000 nM; exposure time: 72 h
Where a name gives a salt, the structure may show the parent alone.
observed property: phenotypic distance
Response field accepts a number only; no unit should be typed.

> print(dat)
                                   compound  observed.value
1  N=c1ccn2c(n1)O[C@H]1[C@H](O)[C@@H](CO)O[C@H]12 [Ancitabine hydrochloride]            5.43

Kindly consider the entry below.
API: value(readout=phenotypic distance, system=E13) for record CC(C)C[C@H](NC(=O)[C@H](Cc1ccccc1)NC(=O)c1cnccn1)B(O)O [Bortezomib]
21.9

* * *

Recorded measurements of phenotypic distance, one per entry
Tested on: E57 (patient-derived glioblastoma stem cells of mesenchymal subtype)
Assay: phenotypic distance (Euclidean, principal components) from DMSO controls (arbitrary units); higher = stronger morphological change
Settings: 12.3 nM; exposure time: 72 h
Structures can show the parent of a compound that is named as a salt.
Response field accepts a number only; no unit should be typed.

API: value(readout=phenotypic distance, system=E57) for record COc1cc(OC)c(C(=O)CCCN2CCCC2)c(OC)c1 [Buflomedil hydrochloride]
1.18

API: value(readout=phenotypic distance, system=E57) for record `CC(=O)O[C@@]12CO[C@@H]1C[C@H](O)[C@@]1(C)C(=O)[C@H](O)C3=C(C)[C@@H](OC(=O)[C@H](O)[C@@H](NC(=O)OC(C)(C)C)c4ccccc4)C[C@@](O)([C@@H](OC(=O)c4ccccc4)[C@H]21)C3(C)C`
5.68

API: value(readout=phenotypic distance, system=E57) for record `CO[C@H]1C(=O)[C@]2(C)[C@@H](OC)C[C@H]3OC[C@@]3(OC(C)=O)[C@H]2[C@H](OC(=O)c2ccccc2)[C@]2(O)C[C@H](OC(=O)[C@H](O)[C@@H](NC(=O)OC(C)(C)C)c3ccccc3)C(C)=C1C2(C)C`
7.09

API: value(readout=phenotypic distance, system=E57) for record `Cc1ccc2c(c1)C1(CCN(CCc3nc(-c4ccccc4)oc3C)CC1)OC(=O)N2`
0.495

API: value(readout=phenotypic distance, system=E57) for record CN1[C@@H]2CC[C@H]1CC(OC(=O)c1c[nH]c3ccccc13)C2 (stereo not given in full) [3-Tropanyl-indole-3-carboxylate hydrochloride]
0.699

API: value(readout=phenotypic distance, system=E57) for record `S=c1[nH]cnc2nc[nH]c12`
0.822

API: value(readout=phenotypic distance, system=E57) for record C=C[C@H]1CN2CC[C@H]1C[C@@H]2[C@@H](O)c1ccnc2ccc(OC)cc12 [Quinidine hydrochloride monohydrate]
0.932

API: value(readout=phenotypic distance, system=E57) for record `Cn1ncnc1[C@H]1c2n[nH]c(=O)c3cc(F)cc(c23)N[C@@H]1c1ccc(F)cc1`
1.96

API: value(readout=phenotypic distance, system=E57) for record `CCOC(=O)C1=C(C)NC(C)=C(C(=O)OCC)C1c1c(F)c(F)c(F)c(F)c1F`
0.695

API: value(readout=phenotypic distance, system=E57) for record `C[C@H]1O[C@@H](O[C@H]2[C@@H](O)C[C@H](O[C@H]3[C@@H](O)C[C@H](O[C@H]4CC[C@@]5(C)[C@H](CC[C@@H]6[C@@H]5C[C@@H](O)[C@]5(C)[C@@H](C7=CC(=O)OC7)CC[C@]65O)C4)O[C@@H]3C)O[C@@H]2C)C[C@H](O)[C@@H]1O`
3.76

* * *

System: E57
Assay: surviving fraction (nuclei count normalised to DMSO); higher = more cells surviving (less toxic)
Conditions: 111.1111111 nM; exposure time: 72 h
observed property: surviving fraction
Response field accepts a number only; no unit should be typed.

Consider the following illustrative entries.
compound	assayed system	surviving fraction
C/C=C(\C)C(=O)N[C@@H](c1ccccc1)[C@@H](O)C(=O)O[C@H]1C[C@@]2(O)[C@@H](OC(=O)c3ccccc3)[C@@H]3[C@]4(OC(C)=O)CO[C@@H]4C[C@H](O)[C@@]3(C)C(=O)[C@H](OC(C)=O)C(=C1C)C2(C)C [Cephalomannine]	E57	0.0579
O=[N+]([O-])c1ccc2c(c1)S(=O)(=O)C=C2 [Stattic]	E57	0.848
O=c1c2ccccc2[se]n1-c1ccccc1 [Ebselen]	E57	1.05
C[C@@H](O)[C@H]1C(=O)N2C(C(=O)O)=C(S[C@@H]3CN[C@H](C(=O)N(C)C)C3)[C@H](C)[C@H]12 [Meropenem]	E57	1.03

API: value(readout=surviving fraction, system=E57) for record COC(=O)Nc1nc2cc(C(=O)c3cccs3)ccc2[nH]1 [Nocodazole]
0.067

* * *

Test system: E57
Experiment: surviving fraction (nuclei count normalised to DMSO); higher = more cells surviving (less toxic)
Details: 37 nM; exposure time: 72 h
Counter-ions that a name gives are not always drawn.
observed property: surviving fraction
Response field accepts a number only; no unit should be typed.

Consider the following illustrative entries.
compound	observed value
Cc1ncc(CO)c(CO)c1O [Pyridoxine hydrochloride]	1.01
CN[C@@H]1[C@@H](O)[C@@H](O[C@@H]2[C@@H](O)[C@H](O[C@H]3OC(CN)=CC[C@H]3N)[C@@H](N)C[C@H]2N)OC[C@]1(C)O [Sisomicin sulfate]	0.884
CNCCc1ccccn1 [Betahistine mesylate]	0.987
CCCCCC[C@H]1C(=O)O[C@H](C)[C@H](NC(=O)c2cccc(NC=O)c2O)C(=O)O[C@@H](C)[C@@H]1OC(=O)CC(C)C [Antimycin A]	0.581

Kindly consider the entry below.
API: value(readout=surviving fraction, system=E57) for record `CN(c1nccc(=O)[nH]1)C1CCN(c2nc3ccccc3n2Cc2ccc(F)cc2)CC1`
1.06

* * *

Tested on: E13
Experiment: surviving fraction (nuclei count normalised to DMSO); higher = more cells surviving (less toxic)
Conditions: 12.3 nM; exposure time: 72 h
Recorded measurements of surviving fraction, one per entry
Response field accepts a number only; no unit should be typed.

For the compound shown here, `CCc1c2c(nc3ccc(OC(=O)N4CCC(N5CCCCC5)CC4)cc13)-c1cc3c(c(=O)n1C2)COC(=O)[C@]3(O)CC` , give the reported surviving fraction.
1.03

For the compound shown here, `CO[C@H]1C(=O)[C@]2(C)[C@@H](OC)C[C@H]3OC[C@@]3(OC(C)=O)[C@H]2[C@H](OC(=O)c2ccccc2)[C@]2(O)C[C@H](OC(=O)[C@H](O)[C@@H](NC(=O)OC(C)(C)C)c3ccccc3)C(C)=C1C2(C)C` , give the reported surviving fraction.
0.226

For the compound shown here, Clc1ccc(COC(Cn2ccnc2)c2ccc(Cl)cc2Cl)cc1 (stereo not drawn) [Econazole nitrate] , give the reported surviving fraction.
1.05

* * *

Recorded measurements of phenotypic distance, one per entry
Test system: E31 (patient-derived glioblastoma stem cells of proneural subtype)
Experiment: phenotypic distance (Euclidean, principal components) from DMSO controls (arbitrary units); higher = stronger morphological change
Details: 37 nM; exposure time: 72 h
Where a name gives a salt, the structure may show the parent alone.
Response field accepts a number only; no unit should be typed.

Consider the following illustrative entries.
compound	observed property	observed value
O=C(Oc1cccc2cccnc12)c1ccccc1 [Benzoxiquine]	phenotypic distance	0.854
C[C@H]1O[C@@H](O[C@H]2[C@@H](O)C[C@H](O[C@H]3[C@@H](O)C[C@H](O[C@H]4CC[C@@]5(C)[C@H](CC[C@@H]6[C@@H]5C[C@@H](O)[C@]5(C)[C@@H](C7=CC(=O)OC7)CC[C@]65O)C4)O[C@@H]3C)O[C@@H]2C)C[C@H](O)[C@@H]1O [Digoxin]	phenotypic distance	4.38
CC(C)CC(=O)N[C@H](C(=O)N[C@H](C(=O)N[C@@H](CC(C)C)[C@@H](O)CC(=O)N[C@@H](C)C(=O)N[C@@H](CC(C)C)[C@@H](O)CC(=O)O)C(C)C)C(C)C [Pepstatin A]	phenotypic distance	0.894
S=c1[nH]cnc2nc[nH]c12 [Mercaptopurine]	phenotypic distance	0.636

For the compound shown here, CNCCc1ccccn1 [Betahistine mesylate] , give the reported phenotypic distance.
0.655

For the compound shown here, O=C(/C=C\n1cnc(-c2cc(C(F)(F)F)cc(C(F)(F)F)c2)n1)NNc1cnccn1 [Selinexor] , give the reported phenotypic distance.
2.72

For the compound shown here, CN1C(=O)CC(c2ccccc2)C1=O (stereo unspecified) [Phensuximide] , give the reported phenotypic distance.
0.726

For the compound shown here, CCCCCCC[N+](CC)(CC)CCCCc1ccc(Cl)cc1 [Clofilium tosylate] , give the reported phenotypic distance.
0.443

For the compound shown here, CC1(C(=O)O)C2CCC(O2)C1(C)C(=O)O (stereo unspecified) [Cantharidic Acid] , give the reported phenotypic distance.
1.07

For the compound shown here, CCC[C@@H]1C[C@@H](C(=O)N[C@@H]([C@H]2O[C@H](SC)[C@H](O)[C@@H](O)[C@H]2O)[C@@H](C)O)N(C)C1 [Lincomycin hydrochloride] , give the reported phenotypic distance.
0.621

For the compound shown here, CC[C@@H]1C(=O)N(C)c2cnc(Nc3ccc(C(=O)N[C@H]4CC[C@H](N5CCN(CC6CC6)CC5)CC4)cc3OC)nc2N1C(C)C [Volasertib] , give the reported phenotypic distance.
2.37
